B1: tRNA (parent)
chain: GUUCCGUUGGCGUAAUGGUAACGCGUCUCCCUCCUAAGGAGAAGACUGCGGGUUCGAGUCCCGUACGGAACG

# Variants of: B1
# Protocol Details: yeast fitness relative to wild type (ratio to wild type); higher = fitter; tRNA-Arg(CCU), competitive growth, 37 C, YPD
This sample holds only a part of the variants without activity.
The label depends only on yeast fitness: condition met if it is at least 0.6, condition not met if it is smaller.

Variant | Category
C5G U16A C29U A40U G52A A65C | condition not met
C33G G38A | condition met
C33U G50A G52C A65C | condition not met
C5U U32C A70U | condition met
C24G A36U A40G U64C | condition not met
U16C C30A | condition met
U13A C66U | condition met
A43C C55A A57C | condition not met
C49A A70G | condition met
A21U G50C C66G | condition not met
G9A C11U A15C A20G G48A C60G | condition met
G6A A15C C22U C33G C62A G63C | condition met
C34G A57U | condition not met
U2A G10C C27G G39U G50C G58A | condition not met
U3C C27U A42G G67A | condition not met
C24G C34G | condition not met
U47C G48C A65C | condition met
C4A C22G C33U A40U U59A | condition not met
A15G C22U | condition met
U7G A42C G44C A65C | condition met
